system-name: human Fpn (Homo sapiens, UniProt Q9NP59)
Sequence (Q9NP59 whole entry): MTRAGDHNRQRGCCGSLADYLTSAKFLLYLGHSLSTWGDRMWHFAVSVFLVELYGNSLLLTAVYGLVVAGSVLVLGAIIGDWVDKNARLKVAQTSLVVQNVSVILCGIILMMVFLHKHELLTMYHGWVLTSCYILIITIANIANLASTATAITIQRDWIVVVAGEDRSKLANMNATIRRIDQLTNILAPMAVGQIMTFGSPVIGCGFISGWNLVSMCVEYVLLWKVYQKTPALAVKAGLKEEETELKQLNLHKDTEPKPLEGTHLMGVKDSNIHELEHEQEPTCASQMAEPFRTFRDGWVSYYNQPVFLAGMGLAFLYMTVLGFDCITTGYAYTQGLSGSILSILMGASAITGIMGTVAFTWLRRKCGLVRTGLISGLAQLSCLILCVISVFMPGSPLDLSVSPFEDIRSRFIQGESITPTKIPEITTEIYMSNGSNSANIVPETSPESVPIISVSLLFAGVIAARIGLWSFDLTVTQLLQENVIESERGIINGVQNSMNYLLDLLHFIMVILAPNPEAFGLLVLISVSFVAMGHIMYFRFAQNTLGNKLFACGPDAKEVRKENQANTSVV
Here the recorded IC50 is given for each entry.
Please answer in the form of a number followed by its unit of measurement.

O=C(NCc1ccccn1)c1csc2c1CCN(CCc1nc3ccccc3[nH]1)C2
24 µM

Form field - read-out: IC50; system: human Fpn (Homo sapiens, UniProt Q9NP59); submitted item: `O=C(NCc1ccccc1F)c1coc(C2CN(CCCc3nc4ccccc4[nH]3)C2)n1`
6.78 µM

Form field - read-out: IC50; system: human Fpn (Homo sapiens, UniProt Q9NP59); submitted item: `O=C(NCc1ncccc1F)c1csc(CCNCc2nc3ccccc3[nH]2)n1`
0.068 µM
